Study System: mOCT1 (Mus musculus, UniProt O08966)
Sequence (O08966 whole entry): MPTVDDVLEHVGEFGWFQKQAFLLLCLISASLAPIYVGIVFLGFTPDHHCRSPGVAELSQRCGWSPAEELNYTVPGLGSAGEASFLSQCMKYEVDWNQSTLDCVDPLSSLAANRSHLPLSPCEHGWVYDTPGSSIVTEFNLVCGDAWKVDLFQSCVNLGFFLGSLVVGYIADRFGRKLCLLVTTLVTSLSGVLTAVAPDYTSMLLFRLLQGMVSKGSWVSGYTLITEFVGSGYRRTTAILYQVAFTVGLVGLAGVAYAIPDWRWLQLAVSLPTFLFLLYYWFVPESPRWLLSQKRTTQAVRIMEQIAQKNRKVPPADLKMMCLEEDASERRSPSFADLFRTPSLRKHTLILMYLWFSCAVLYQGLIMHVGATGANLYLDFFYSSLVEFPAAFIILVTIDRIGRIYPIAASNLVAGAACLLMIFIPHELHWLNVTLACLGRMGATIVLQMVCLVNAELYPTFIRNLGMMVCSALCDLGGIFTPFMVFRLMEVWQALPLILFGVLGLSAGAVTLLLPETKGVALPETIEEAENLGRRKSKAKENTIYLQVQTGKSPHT
Procedure Details: Inhibition of ASP+ uptake in HEK 293 cells expressing mOCT1
Condition Context: HEK 293 mOCT1, 1 μM ASP+
Endpoint Label: IC50
Could you kindly put the unit after your number?

Asked: Entry under review: N.N.[Cl][Pt+].c1ccc2c(c1)cnc1ccccc12 [phenanthriplatin, cis-[Pt(NH3)2Cl(phenanthridine)]^+] . Reported IC50?
Given back: 17 µM

* * *

Study System: mOCT2 (Mus musculus, UniProt O70577)
Sequence (O70577 whole entry): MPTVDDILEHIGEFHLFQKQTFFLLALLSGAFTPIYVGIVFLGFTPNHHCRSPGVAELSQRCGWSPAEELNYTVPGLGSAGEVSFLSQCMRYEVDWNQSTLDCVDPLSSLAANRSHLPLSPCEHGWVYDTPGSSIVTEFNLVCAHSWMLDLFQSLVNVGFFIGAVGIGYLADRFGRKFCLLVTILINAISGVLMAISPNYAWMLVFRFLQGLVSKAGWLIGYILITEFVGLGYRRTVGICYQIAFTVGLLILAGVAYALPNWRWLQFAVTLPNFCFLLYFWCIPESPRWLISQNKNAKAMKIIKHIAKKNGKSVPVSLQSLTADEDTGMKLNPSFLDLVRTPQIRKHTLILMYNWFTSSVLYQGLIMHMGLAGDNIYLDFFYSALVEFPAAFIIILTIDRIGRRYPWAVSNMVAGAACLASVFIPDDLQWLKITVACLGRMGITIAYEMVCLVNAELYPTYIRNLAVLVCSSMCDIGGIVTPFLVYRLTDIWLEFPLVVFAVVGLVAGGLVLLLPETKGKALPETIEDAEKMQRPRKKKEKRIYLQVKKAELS
Procedure Details: Inhibition of ASP+ uptake in HEK 293 cells expressing mOCT2
Condition Context: HEK 293 mOCT2, 1 μM ASP+
Endpoint Label: IC50 (nM)
Report the value in nM with no unit label.

Asked: Please give the measured IC50 for this compound: N.N.[Cl][Pt+].c1ccc2c(c1)cnc1ccccc12 [phenanthriplatin, cis-[Pt(NH3)2Cl(phenanthridine)]^+]
Given back: 2000
